- targetOrSystem: H3K27me3 11-mer histone H3 tail peptide
- testSummary: SPR
parameter: Kd (nM)
The response must be a number in nM with no trailing unit.

IN: # input binder: DIDO3 PHD domain (domain or fragment) PNALYCICRQPHNNRFMICCDRCEEWFHGDCVGISEARGRLLERNGEDYICPNCTILQVQ ; wanted: its Kd
OUT: 26.5
